Tested on: KRAS patient-derived spheroids with HUVEC/MSC, viability
Test: Anticancer human tumor 941728-121-R-J1-PDC patient-derived lung adenocarcinoma cell line growth inhibition [KRAS2]; active = viability on the fitted dose curve at most 10% of control; inactive = the rest
Conditions: second compound 1 µM; first compound 10 µM
Text: Multicellular complex tumor spheroid response to RAS pathway inhibitors in combination with a targeted agents in patient-derived cell lines with oncogenic KRAS variants from multiple cancer types A high-throughput screen of multi-cell type tumor spheroids was designed to identify active combinations of targeted small molecules and KRAS pathway inhibitors. […] Compounds. […] If the clinical Cmax for an agent had not been determined, the highest concentration tested was 10 microM. […]
Select the correct class. Options are YES (active), NO (inactive) and nothing else.

molecule: Cn1nccc1Nc1nccc(-c2cc3c(s2)C(C)(C)N(CCN2CCOCC2)C3=O)n1 + C=CC(=O)N1CCN(c2nc(=O)n(-c3c(C)ccnc3C(C)C)c3nc(-c4c(O)cccc4F)c(F)cc23)C(C)C1
assigned.class: NO
//
molecule: CC1OCC2(CCN(c3cnc(Sc4ccnc(N)c4Cl)c(N)n3)CC2)C1N (stereo not given) + C=CC(=O)N1CCN(c2nc(=O)n(-c3c(C)ccnc3C(C)C)c3nc(-c4c(O)cccc4F)c(F)cc23)C(C)C1
assigned.class: NO

Each molecule tested received a call. Report the one for COc1cc2nccc(Oc3ccc(NC(=O)C4(C(=O)Nc5ccc(F)cc5)CC4)cc3)c2cc1OC + COc1cc2nc(C)nc(NC(C)c3cc(N)cc(C(F)(F)F)c3)c2cc1OC1CCOC1 . NO

Each molecule tested received a call. Report the one for CC1OCC2(CCN(c3cnc(Sc4ccnc(N)c4Cl)c(N)n3)CC2)C1N (stereo not given) + CNCc1ccccc1-c1csc(C(C)Nc2nc(C)nc3cc(OC)c(OC)cc23)c1 . NO

Each molecule tested received a call. Report the one for CCNC(=O)CC1N=C(c2ccc(Cl)cc2)c2cc(OC)ccc2-n2c(C)nnc21 (stereo not given) + C=CC(=O)N1CCN(c2nc(OCC3CCCN3C)nc3c2CCN(c2cccc4cccc(C)c24)C3)CC1CC#N . YES

----------
System: KRAS patient-derived spheroids with HUVEC/MSC, viability
Test: Anticancer human tumor 941728-121-R-J1-PDC cell line growth inhibition [KRAS2]; active = viability on the fitted dose curve at most 10% of control; inactive = the rest;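 note: spheroids exposed to agents for seven days before readout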
Settings: second compound 1 µM; first compound 10 µM
Select the correct class. Options are 1 (active), 0 (inactive) and nothing else.

Each compound tested received a call. Report the one for COc1cc2nccc(Oc3ccc(NC(=O)C4(C(=O)Nc5ccc(F)cc5)CC4)cc3)c2cc1OC + CC1OCC2(CCN(c3cnc(Sc4ccnc(N)c4Cl)c(N)n3)CC2)C1N . 1

Each compound tested received a call. Report the one for O=C(c1cc(Cc2n[nH]c(=O)c3ccccc23)ccc1F)N1CCN(C(=O)C2CC2)CC1 + COc1cc2nc(C)nc(NC(C)c3cc(N)cc(C(F)(F)F)c3)c2cc1OC1CCOC1 . 0

Each compound tested received a call. Report the one for COC(=O)c1ccc2c(C(=Nc3ccc(N(C)C(=O)CN4CCN(C)CC4)cc3)c3ccccc3)c(O)[nH]c2c1 + CNCc1ccccc1-c1csc(C(C)Nc2nc(C)nc3cc(OC)c(OC)cc23)c1 . 1

Each compound tested received a call. Report the one for O=C(c1cc(Cc2n[nH]c(=O)c3ccccc23)ccc1F)N1CCN(C(=O)C2CC2)CC1 + C=CC(=O)N1CCN(c2nc(=O)n(-c3c(C)ccnc3C(C)C)c3nc(-c4c(O)cccc4F)c(F)cc23)C(C)C1 . 0

Each compound tested received a call. Report the one for CCNC(=O)CC1N=C(c2ccc(Cl)cc2)c2cc(OC)ccc2-n2c(C)nnc21 (stereo not given) + C=CC(=O)N1CCN(c2nc(=O)n(-c3c(C)ccnc3C(C)C)c3nc(-c4c(O)cccc4F)c(F)cc23)C(C)C1 . 0
